pKd values, listed per item
- test_system: Human GPA33 (recombinant protein, Novoprotein) (human) (UniProt Q99795)
- Sequence (Q99795 22-235 limits assumed): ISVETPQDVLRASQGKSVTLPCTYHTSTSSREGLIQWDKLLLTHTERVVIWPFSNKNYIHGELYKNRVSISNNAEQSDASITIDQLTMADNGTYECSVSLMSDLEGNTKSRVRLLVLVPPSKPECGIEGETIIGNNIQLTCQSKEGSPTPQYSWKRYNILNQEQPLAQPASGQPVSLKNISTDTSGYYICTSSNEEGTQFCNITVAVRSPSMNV
- assay_procedure: SPR (Biacore), binding to GPA33 protein; IgG format
pKd here: minus log base 10 of the concentration, concentration in moles per litre.

Example cases with answers are listed next.
>>> numeric_value("G3A_VK4+VH2 (antibody, IgG1, V domains shown, part only, IgG1 constant regions not given) VH: EVQLVESGGGLVKPGGSLRLSCAASGFAFSTYDMSWVRQAPGKGLEWVATISSGGSYTYYLDSVKGRFTISRDSAKNSLYLQMNSLRAEDTAVYYCAPTTVVPFAYWGQGTLVTVSA VL: DIQMTQSPSSLSASVGDRVTITCKASQNVRTVVAWYQQKPGKAPKTLIYLASNRHTGVPSRFSGSGSGTEFTLTISNLQPEDFATYYCLQHWSYPLTFGSGTKLEVK")
9.64
>>> numeric_value("G3A_VK1+VH3 (antibody, IgG1, V domains shown, part only, IgG1 constant regions) VH: EVQLVESGGGLVKPGGSLRLSCAASGFAFSTYDMSWVRQAPGKGLEWVATISSGGSYTYYADSVKGRFTISRDSAKNSLYLQMNSLRAEDTAVYYCAPTTVVPFAYWGQGTLVTVSA VL: DIQMTQSPSSLSASVGDRVTITCKASQNVRTVVAWYQQKPGKAPKRLIYLASNRHTGVPSRFSGSGSGTEFTLTISNLQPEDFATYYCLQHWSYPLTFGSGTKLEVK")
8.83

Form field: reported pKd of G3A_VK1+VH2 (antibody, IgG1, V domains shown, part only, IgG1 constant regions) VH: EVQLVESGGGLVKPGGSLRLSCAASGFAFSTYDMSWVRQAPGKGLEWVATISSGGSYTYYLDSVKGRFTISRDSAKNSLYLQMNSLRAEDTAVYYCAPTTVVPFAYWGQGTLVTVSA VL: DIQMTQSPSSLSASVGDRVTITCKASQNVRTVVAWYQQKPGKAPKRLIYLASNRHTGVPSRFSGSGSGTEFTLTISNLQPEDFATYYCLQHWSYPLTFGSGTKLEVK 8.76
